Biological target: JAK1 (Homo sapiens)
Construct: purchased Invitrogen
Sequence (P23458 whole entry): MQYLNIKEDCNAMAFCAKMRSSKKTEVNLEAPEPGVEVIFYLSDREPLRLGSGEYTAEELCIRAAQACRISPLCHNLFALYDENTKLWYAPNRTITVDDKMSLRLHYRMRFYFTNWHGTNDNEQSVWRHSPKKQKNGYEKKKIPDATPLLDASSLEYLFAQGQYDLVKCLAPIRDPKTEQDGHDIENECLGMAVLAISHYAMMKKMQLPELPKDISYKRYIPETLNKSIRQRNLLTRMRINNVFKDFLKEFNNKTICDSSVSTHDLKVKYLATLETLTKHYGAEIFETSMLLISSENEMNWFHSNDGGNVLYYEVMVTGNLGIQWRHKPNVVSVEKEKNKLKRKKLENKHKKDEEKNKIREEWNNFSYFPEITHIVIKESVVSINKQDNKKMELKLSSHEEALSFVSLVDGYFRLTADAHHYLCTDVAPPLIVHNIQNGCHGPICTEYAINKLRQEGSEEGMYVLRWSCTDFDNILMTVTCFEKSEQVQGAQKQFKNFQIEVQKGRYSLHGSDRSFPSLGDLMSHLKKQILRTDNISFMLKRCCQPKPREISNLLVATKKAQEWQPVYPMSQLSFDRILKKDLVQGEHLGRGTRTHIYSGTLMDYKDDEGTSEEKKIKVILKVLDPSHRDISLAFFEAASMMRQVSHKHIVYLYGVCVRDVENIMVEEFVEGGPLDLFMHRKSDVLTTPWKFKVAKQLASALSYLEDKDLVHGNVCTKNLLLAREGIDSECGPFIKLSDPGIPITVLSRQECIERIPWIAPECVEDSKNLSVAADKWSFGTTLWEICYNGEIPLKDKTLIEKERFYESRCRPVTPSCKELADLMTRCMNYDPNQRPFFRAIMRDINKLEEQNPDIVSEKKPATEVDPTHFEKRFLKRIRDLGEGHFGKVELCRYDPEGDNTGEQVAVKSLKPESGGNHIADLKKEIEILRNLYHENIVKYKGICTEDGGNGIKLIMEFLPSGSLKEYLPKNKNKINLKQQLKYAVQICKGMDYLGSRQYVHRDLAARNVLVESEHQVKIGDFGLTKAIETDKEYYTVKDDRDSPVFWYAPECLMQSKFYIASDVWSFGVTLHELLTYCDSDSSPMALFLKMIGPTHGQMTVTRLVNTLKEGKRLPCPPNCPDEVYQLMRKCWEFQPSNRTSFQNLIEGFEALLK
Test: JAK1 enzyme inhibition test (LANCE method)
Format: biochemical
Settings: test compound 1 μM; read-out: Inhibitory rate (%) JAK1 1 μM
In this section we review reported inhibition at 1 µM values for a set of molecules.
Respond with the bare value in %.

MOLECULE | inhibition at 1 µM [%]
C[C@H]1CCC[C@H]1n1cc(-c2csc(C(N)=O)c2)c2c(=O)[nH]ccc21 (relative stereo) [Example 85] | 90
O=c1[nH]ccc2c1c(-c1ccc(N3CCOCC3)cc1)nn2-c1c(F)cc(F)cc1F [Example 308] | 91
CC(=O)N1CCN(c2ccc(-c3nn(-c4c(F)cccc4F)c4cc[nH]c(=O)c34)cc2)CC1 [Example 279] | 96
N#Cc1c[nH]c(=O)c2c(-c3cn[nH]c3)nn(-c3c(F)cccc3F)c12 [Example 228] | 85
NC(=O)Cc1ccc(-c2nn(-c3c(F)cccc3F)c3c(Cl)c[nH]c(=O)c23)cc1 [Example 124] | 89
CC(=O)Nc1cccc(-c2cn(C3CCCC3)c3c(C#N)c[nH]c(=O)c23)c1 [Example 130] | 76
O=C(NCCO)c1cc(-c2nn(C3CCCC3)c3cc[nH]c(=O)c23)cs1 [Example 157] | 100
N#CCc1ccc(-c2nn(-c3c(F)cccc3F)c3cc[nH]c(=O)c23)cc1 [Example 39] | 99

Please look up its inhibition at 1 µM: CC(C)(C#N)c1ccc(-c2cn(C3CCCC3)c3c(C#N)c[nH]c(=O)c23)cc1 [Example 139]
96

Please look up its inhibition at 1 µM: COC(=O)c1cc(-c2nn(C3CCCC3)c3cc[nH]c(=O)c23)cs1 [Example 12]
98

Please look up its inhibition at 1 µM: NC(=O)Cc1cccc(-c2nn(-c3c(F)cccc3F)c3c(Br)c[nH]c(=O)c23)c1 [Example 147]
74

Please look up its inhibition at 1 µM: O=c1[nH]cc(Cl)c2c1c(-c1ccc(N3CCOCC3)cc1)nn2-c1c(F)cccc1F [Example 161]
79
